method_notes: Solubility of peptide compounds in buffer formulations (Table 5)
Format: physicochemical
study_conditions: aqueous buffer; 50 mM phosphate buffer pH 6.5, 2 h agitation, target 1 mg/ml; read-out: Solubility, Buffer pH 6.5
Numbered stars: 1 amine (or outer) side, 2 acyl side, 3 side chain; on linkers, the order of the positions; unused ones are H or OH. Bridge positions count the residues as written; N and C are the ends. Square brackets hold non-standard residues; d marks the D form. Peptide text beside a SMILES is read from it. * marks the point of attachment. Lys(Me,(CH2)4NMe(CH2)5CO) = CN(CCCCCC(=O)[*:3])CCCCN(C)CCCC[C@H](N[*:1])C(=O)[*:2]; Lys(Me,(CH2)4NMe(CH2)4CO) = CN(CCCCC(=O)[*:3])CCCCN(C)CCCC[C@H](N[*:1])C(=O)[*:2]; Trp(7-Me) = Cc1cccc2c(C[C@H](N)C(=O)O)c[nH]c12; Trp(1-Me) = Cn1cc(C[C@H](N)C(=O)O)c2ccccc21; NH(2-(3-pyridyl)ethyl) = c1cncc(CCN*)c1; 2Nal = N[C@@H](Cc1ccc2ccccc2c1)C(=O)O; 3Pal = N[C@@H](Cc1cccnc1)C(=O)O; Thp = NC1(C(=O)O)CCOCC1; Me2NCH2CH2 = CN(C)CC*; Aib = CC(C)(N)C(=O)O; Sar = CNCC(=O)O
# Lookup of reported solubility at 2 h keyed by entry

Previously resolved entries follow.
CC(=O)NCCCC[C@@H]1NC(=O)[C@H](Cc2c[nH]c3c(C)cccc23)NC(=O)CCCCCN(C)CCCCN(C)CCCC[C@@H](C(=O)N[C@@H](CC(N)=O)C(=O)N[C@@H](Cc2cccnc2)C(=O)N(C)CC(N)=O)NC(=O)C(C)(C)NC(=O)[C@H](Cc2ccc3ccccc3c2)NC(=O)[C@H](Cc2ccc(OCCN(C)C)cc2)NC(=O)C2(CCOCC2)NC1=O [compound 18] ([Trp(7-Me)]K(Ac)[Thp]Y(Me2NCH2CH2)[2Nal][Aib][Lys(Me,(CH2)4NMe(CH2)5CO)]N[3Pal][Sar]-NH2; lactam N-7)    ≥ 980 µg/mL
CC(=O)NCCCC[C@@H]1NC(=O)[C@H](Cc2c[nH]c3c(C)cccc23)NC(=O)CCCCN(C)CCCCN(C)CCCC[C@@H](C(=O)NCC(=O)NCCc2cccnc2)NC(=O)C2(CCOCC2)NC(=O)[C@H](Cc2ccc3ccccc3c2)NC(=O)[C@H](Cc2ccc(OCCN(C)C)cc2)NC(=O)C2(CCOCC2)NC1=O [compound 48] ([Trp(7-Me)]K(Ac)[Thp]Y(Me2NCH2CH2)[2Nal][Thp][Lys(Me,(CH2)4NMe(CH2)4CO)]G-{NH(2-(3-pyridyl)ethyl)}; lactam N-7)    850 µg/mL
CC(=O)NCCCC[C@@H]1NC(=O)[C@H](Cc2cn(C)c3ccccc23)NC(=O)CCCCCN(C)CCCCN(C)CCCC[C@@H](C(=O)NCC(=O)NCCc2cccnc2)NC(=O)C(C)(C)NC(=O)[C@H](Cc2ccc3ccccc3c2)NC(=O)[C@H](Cc2ccc(OCCN(C)C)cc2)NC(=O)C2(CCOCC2)NC1=O [compound 23] ([Trp(1-Me)]K(Ac)[Thp]Y(Me2NCH2CH2)[2Nal][Aib][Lys(Me,(CH2)4NMe(CH2)5CO)]G-{NH(2-(3-pyridyl)ethyl)}; lactam N-7)    ≥ 890 µg/mL

# solubility at 2 h (molecule: CN(C)CCOc1ccc(C[C@@H]2NC(=O)C3(CCOCC3)NC(=O)[C@H](CCC(N)=O)NC(=O)[C@H](Cc3c[nH]c4ccccc34)NC(=O)CCCCN(C)CCCCN(C)CCCC[C@@H](C(=O)N[C@@H](CO)C(=O)N[C@@H](Cc3cccnc3)C(=O)N(C)CC(N)=O)NC(=O)C3(CCOCC3)NC(=O)[C@H](Cc3ccc4ccccc4c3)NC2=O)cc1 [compound 43] (WQ[Thp]Y(Me2NCH2CH2)[2Nal][Thp][Lys(Me,(CH2)4NMe(CH2)4CO)]S[3Pal][Sar]-NH2; lactam N-7) ) is ≥ 1050 µg/mL

# solubility at 2 h (molecule: CN(C)CCOc1ccc(C[C@@H]2NC(=O)C3(CCOCC3)NC(=O)[C@H](CCC(N)=O)NC(=O)[C@H](Cc3cn(C)c4ccccc34)NC(=O)CCCCN(C)CCCCN(C)CCCC[C@@H](C(=O)NCC(=O)NCCc3cccnc3)NC(=O)C(C)(C)NC(=O)[C@H](Cc3ccc4ccccc4c3)NC2=O)cc1 [compound 25] ([Trp(1-Me)]Q[Thp]Y(Me2NCH2CH2)[2Nal][Aib][Lys(Me,(CH2)4NMe(CH2)4CO)]G-{NH(2-(3-pyridyl)ethyl)}; lactam N-7) ) is ≥ 890 µg/mL

----------
method_notes: Protease stability in simulated intestinal fluids (FaSSIF) (Table 7)
Type: in vitro ADME
study_conditions: fassif with pancreatin, 120 min, 37° C., read-out: Remaining percentage of peptide compound, FaSSIF 120 (min)
Numbered stars: 1 amine (or outer) side, 2 acyl side, 3 side chain; on linkers, the order of the positions; unused ones are H or OH. Bridge positions count the residues as written; N and C are the ends. Square brackets hold non-standard residues; d marks the D form. Peptide text beside a SMILES is read from it. * marks the point of attachment. Lys(Me,(CH2)4NMe(CH2)4CO) = CN(CCCCC(=O)[*:3])CCCCN(C)CCCC[C@H](N[*:1])C(=O)[*:2]; X3 = Cc1cccc2c(C[C@H](N[*:1])C(=O)[*:2])cn(C)c12; Trp(7-Me) = Cc1cccc2c(C[C@H](N)C(=O)O)c[nH]c12; NH(2-(3-pyridyl)ethyl) = c1cncc(CCN*)c1; Sebacoyl = O=C(CCCCCCCCC(=O)[*:2])[*:1]; 2Nal = N[C@@H](Cc1ccc2ccccc2c1)C(=O)O; X4 = O=C(CCCCCCCCCCCCCCCN[*:1])[*:2]; 3Pal = N[C@@H](Cc1cccnc1)C(=O)O; Lys(Me) = CNCCCC[C@H](N)C(=O)O; Thp = NC1(C(=O)O)CCOCC1; Me2NCH2CH2 = CN(C)CC*; Aib = CC(C)(N)C(=O)O; Aoc = NCCCCCCCC(=O)O; Sar = CNCC(=O)O
assay_readout: remaining at 2 h, 1 µM (%)
The figure you give is taken to be in %; do not add the unit.

Previously resolved entries follow.
Cc1cccc2c(C[C@@H]3NC(=O)CCCCCCCCCCCCCCCNC(=O)CC[C@@H](C(=O)N[C@@H](CC(N)=O)C(=O)N[C@@H](Cc4cccnc4)C(=O)N(C)CC(N)=O)NC(=O)C(C)(C)NC(=O)[C@H](Cc4ccc5ccccc5c4)NC(=O)[C@H](Cc4ccc(OCCN(C)C)cc4)NC(=O)C4(CCOCC4)NC(=O)[C@H](CCC(N)=O)NC3=O)c[nH]c12 [compound 3] ([X4][Trp(7-Me)]Q[Thp]Y(Me2NCH2CH2)[2Nal][Aib]EN[3Pal][Sar]-NH2; lactam N-8)    81
Cc1cccc2c(C[C@@H]3NC(=O)CCCCCCCCC(=O)N(C)CCCC[C@@H](C(=O)N[C@@H](CC(N)=O)C(=O)N[C@@H](Cc4cccnc4)C(=O)N(C)CC(N)=O)NC(=O)C(C)(C)NC(=O)[C@H](Cc4ccc5ccccc5c4)NC(=O)[C@H](Cc4ccc(OCCN(C)C)cc4)NC(=O)C4(CCOCC4)NC(=O)[C@H](CCC(N)=O)NC3=O)c[nH]c12 [compound 19] ([Trp(7-Me)]Q[Thp]Y(Me2NCH2CH2)[2Nal][Aib][Lys(Me)]N[3Pal][Sar]-NH2; linker N-7 via Sebacoyl)    78
Cc1cccc2c(C[C@@H]3NC(=O)CCCCN(C)CCCCN(C)CCCC[C@@H](C(=O)NCC(=O)NCCc4cccnc4)NC(=O)C(C)(C)NC(=O)[C@H](Cc4ccc5ccccc5c4)NC(=O)[C@H](Cc4ccc(OCCN(C)C)cc4)NC(=O)C4(CCOCC4)NC(=O)[C@H](CC(C)C)NC3=O)cn(C)c12 [compound 49] ([X3]L[Thp]Y(Me2NCH2CH2)[2Nal][Aib][Lys(Me,(CH2)4NMe(CH2)4CO)]G-{NH(2-(3-pyridyl)ethyl)}; lactam N-7)    100
CN(C)CCOc1ccc(C[C@@H]2NC(=O)C3(CCOCC3)NC(=O)[C@H](CCC(N)=O)NC(=O)[C@H](Cc3c[nH]c4ccccc34)NC(=O)CCCCN(C)CCCCN(C)CCCC[C@@H](C(=O)N[C@@H](CO)C(=O)N[C@@H](Cc3cccnc3)C(=O)N(C)CC(N)=O)NC(=O)C3(CCOCC3)NC(=O)[C@H](Cc3ccc4ccccc4c3)NC2=O)cc1 [compound 43] (WQ[Thp]Y(Me2NCH2CH2)[2Nal][Thp][Lys(Me,(CH2)4NMe(CH2)4CO)]S[3Pal][Sar]-NH2; lactam N-7)    84

Below: the item to evaluate.
# remaining at 2 h, 1 µM (compound: Cc1cccc2c(C[C@@H]3NC(=O)CCCCCCCNC(=O)CC[C@@H](C(=O)N[C@@H](CC(N)=O)C(=O)N[C@@H](Cc4cccnc4)C(=O)N(C)CC(N)=O)NC(=O)C(C)(C)NC(=O)[C@H](Cc4ccc5ccccc5c4)NC(=O)[C@H](Cc4ccc(OCCN(C)C)cc4)NC(=O)C4(CCOCC4)NC(=O)[C@H](CCC(N)=O)NC3=O)c[nH]c12 [compound 6] ([Aoc][Trp(7-Me)]Q[Thp]Y(Me2NCH2CH2)[2Nal][Aib]EN[3Pal][Sar]-NH2; lactam N-8) ) is 77
